Experiment: Oral bioavailability in Sprague-Dawley rat at 10 mg/kg
Assay type: ADME, organism-based
Conditions: Sprague-Dawley, in vivo
Kindly supply the reported bioavailability values for the records listed here.
Give bare numbers, in %.

# count of solved cases: 3
CC#C[C@H]1CN(S(=O)(=O)c2ccc(N)nc2)CCN1c1ccc([C@@](C)(O)C(F)(F)F)cn1 47
CC#C[C@H]1CN(S(=O)(=O)c2ccc(N)nc2)CCN1c1ccc([S@](=N)(=O)C(F)(F)F)cc1 51
CC#C[C@H]1CN(S(=O)(=O)c2ccc(N)nc2)CCN1c1ccc([C@](O)(CO)C(F)(F)F)cc1 48

Form field: reported bioavailability of CC#C[C@H]1CN(S(=O)(=O)c2ccc(N)nc2)CCN1c1ccc(S(N)(=O)=O)cc1
5

###

Assay: Oral bioavailability in C57BL/6 mouse at 10 mg/kg
Assay type: ADME, organism-based
Conditions: in vivo
Provide the reported bioavailability of each item.
Give bare numbers, in %.

CC#C[C@H]1CN(S(=O)(=O)c2ccc(N)nc2)CCN1c1ccc([C@@](C)(O)C(F)(F)F)cn1 47

# lookup: bioavailability of CC#C[C@H]1CN(S(=O)(=O)c2ccc(N)nc2)CCN1c1ccc([S@](=N)(=O)C(F)(F)F)cc1
53

###

Assay: Cmax in C57BL/6 mouse at 10 mg/kg, po
Format: ADME, organism-based
Set-up: dose 10 mg/kg, route oral
Details: in vivo
Result Type: Cmax (µM)
One number for each entry, in µM.

CC#C[C@H]1CN(S(=O)(=O)c2ccc(N)nc2)CCN1c1ccc([C@@](C)(O)C(F)(F)F)cn1 9.71
CC#C[C@H]1CN(S(=O)(=O)c2ccc(N)nc2)CCN1c1ccc([S@](=N)(=O)C(F)(F)F)cc1 46.6

Could you share which Cmax value was measured for CC#C[C@H]1CN(S(=O)(=O)c2ccc(N)nc2)CCN1c1ccc(C(O)(C(F)(F)F)C(F)(F)F)cc1 ?
5.82

###

Assay: AUC in Sprague-Dawley rat at 10 mg/kg, po
Format: ADME, organism-based, Plasma
Set-up: dose 10 mg/kg, route oral
Conditions: Sprague-Dawley, plasma
Result Type: AUC (µM·h)
Give bare numbers, in µM·h.

Look over these answered cases.
CC#C[C@H]1CN(S(=O)(=O)c2ccc(N)nc2)CCN1c1ccc(S(N)(=O)=O)cc1 0.26
CC#C[C@H]1CN(S(=O)(=O)c2ccc(N)nc2)CCN1c1ccc([S@](=N)(=O)C(F)(F)F)cc1 25.3
CC#C[C@H]1CN(S(=O)(=O)c2ccc(N)nc2)CCN1c1ccc([C@@](C)(O)C(F)(F)F)cn1 28.4
CC#C[C@H]1CN(S(=O)(=O)c2ccc(N)nc2)CCN1c1ccc([C@](O)(CO)C(F)(F)F)cc1 7.1

Reported AUC, molecule CC#C[C@H]1CN(S(=O)(=O)c2ccc(N)nc2)CCN1c1ccc(C(O)(C(F)(F)F)C(F)(F)F)cc1 : ____
20

###

Experiment: Tmax in C57BL/6 mouse at 10 mg/kg, po
Type: ADME, organism-based
Set-up: dose 10 mg/kg, route oral
Details: in vivo
Please go through the items and note down their Tmax.
One number for each entry, in h.

These solved cases illustrate the format of a correct answer.
CC#C[C@H]1CN(S(=O)(=O)c2ccc(N)nc2)CCN1c1ccc([C@@](C)(O)C(F)(F)F)cn1 0.25
CC#C[C@H]1CN(S(=O)(=O)c2ccc(N)nc2)CCN1c1ccc(C(O)(C(F)(F)F)C(F)(F)F)cc1 5

Moving on to another compound below.
Name the recorded Tmax for CC#C[C@H]1CN(S(=O)(=O)c2ccc(N)nc2)CCN1c1ccc([S@](=N)(=O)C(F)(F)F)cc1 .
1
